Species: Rattus norvegicus
Assay: DrugMatrix - Regimen: Daily Repeat
Assay type: toxicity, organism-based, Sprague-Dawley
Parameters: regimen Daily Repeat, gender Male, age 6-8 weeks
Conditions: in vivo, po, 50 mg/kg, 72 h, tissue Plasma, route oral GAVAGE, dose level Low, time 3 day, vehicle .5 % CMC
QUANTITY_NAME: CHOLESTEROL (mg/dL)
Answers are plain numbers, in mg/dL.

Some compounds with recorded CHOLESTEROL:
>>> measured_value("CCN1CCC[C@H]1CNC(=O)c1cc(S(N)(=O)=O)ccc1OC [LEVOSULPIRIDE]")
70.33
>>> measured_value("NC1CCN(c2nc3c(cc2F)c(=O)c(C(=O)O)cn3-c2ccc(F)cc2F)C1 (centres undefined) [TOSUFLOXACIN]")
63
>>> measured_value("Cc1cccc(C)c1OCC(C)N (centres undefined) [MEXILETINE]")
73

Field: next compound
### Prompt # query: CHOLESTEROL of entry CN(C)[C@@H]1C(O)=C(C(N)=O)C(=O)[C@@]2(O)C(O)=C3C(=O)c4c(O)ccc(Cl)c4[C@@](C)(O)[C@H]3C[C@@H]12 [CHLORTETRACYCLINE]
### Response 73.33

====

Species on record: Rattus norvegicus
Assay: DrugMatrix - Regimen: Daily Repeat
Type: toxicity, organism-based, Sprague-Dawley
Parameters: regimen Daily Repeat, gender Male, age 6-8 weeks
Conditions: in vivo, po, 0 mg/kg, 120 h, tissue Plasma, route oral GAVAGE, dose level Control, time 5 day, vehicle 100 % WATER
Answer each item with its documented ALKALINE PHOSPHATASE.
Give bare numbers, in u/L.

>>> measured_value("Cn1c(=O)c2[nH]cnc2n(C)c1=O.O [THEOPHYLLINE]")
345

Required: ALKALINE PHOSPHATASE, one value per compound below.
1. CCN(CC)CCNC(=O)c1cc(S(C)(=O)=O)ccc1OC [TIAPRIDE]
2. NNc1nncc2ccccc12 [HYDRALAZINE]
3. CN1[C@@H]2CC[C@H]1C[C@@H](OC(=O)C(CO)c1ccccc1)C2 (stereo not given in full) [ATROPINE]

### Response
354.33
343
367.33

### Prompt # query: ALKALINE PHOSPHATASE of entry Oc1cccc(O)c1O [PYROGALLOL]
### Response 393

====

Species on record: Rattus norvegicus
Experiment: DrugMatrix - Regimen: Daily Repeat
Type: toxicity, organism-based, Sprague-Dawley
Design: regimen Daily Repeat, gender Male, age 6-8 weeks
Conditions: in vivo, po, 2000 mg/kg, 72 h, tissue Blood, route oral GAVAGE, dose level High, time 3 day, vehicle .5 % CMC
QUANTITY_NAME: NEUTROPHIL
Your answer should be a number followed by the unit of measure.

Required: NEUTROPHIL, one value per compound below.
1. CN/C(=N/CCSCc1nc[nH]c1C)NC#N [CIMETIDINE]
2. COc1cc2nc(N3CCN(C(=O)c4ccco4)CC3)nc(N)c2cc1OC [PRAZOSIN]
3. O=C1Nc2ccc(Cl)cc2C(c2ccccc2Cl)=NC1O (stereo unspecified) [LORAZEPAM]
4. NC1CCN(c2nc3c(cc2F)c(=O)c(C(=O)O)cn3-c2ccc(F)cc2F)C1 (stereo unspecified) [TOSUFLOXACIN]

### Response
1: 15%; 2: 10.33%; 3: 10%; 4: 11.5%

Required: NEUTROPHIL, one value per compound below.
1. CN(C/C=C/C#CC(C)(C)C)Cc1cccc2ccccc12 [TERBINAFINE]
2. CC1(C)S[C@@H]2[C@H](NC(=O)[C@H](N)c3ccccc3)C(=O)N2[C@H]1C(=O)O [AMPICILLIN]

### Response
["23.33%", "8%"]
